# pest or weed control at 100 ppm values compiled below
System: Venturia inaequalis
Assay: apple scab control on apple seedlings
Format: in vivo
Conditions: Venturia inaequalis; 100 ppm
READOUT: pest or weed control at 100 ppm (%)

1. C[Si](C)(Cn1ccnc1)c1ccc(-c2ccccc2)cc1
80
2. C[Si](Cn1ccnc1)(c1ccccc1)c1ccccc1Cl (stereo not shown)
100
3. C[Si](Cn1ccnc1)(c1ccc(Cl)cc1)c1ccccc1Cl (stereo not shown)
80
4. CCCCCCCCCCCCCCCCCC[Si](C)(C)Cn1ccnc1
80
5. CC(C)O[Si](C)(Cn1ccnc1)c1ccccc1 (stereo not shown)
0
6. C[Si](C)(Cn1ccnc1)c1ccccc1-c1ccccc1
90
7. C[Si](C)(Cn1ccnc1)c1ccc(OC(F)(F)F)cc1
50

====

Tested on: cucumber seedlings
Assay: phytotoxicity on cucumber seedlings
Format: in vivo
Parameters: key: G: growth reduction; H: hormonal effects
Conditions: 100 ppm
READOUT: Phytotoxicity (growth reduction or hormonal effects)

1. CCCC[Si](C)(Cn1ccnc1)c1ccc(Cl)cc1Cl (stereo not shown)
G
2. C[Si](C)(Cn1ccnc1)C1CCCCC1
G
3. CCCC[Si](C)(Cn1ccnc1)c1ccc(Cl)cc1 (stereo not shown)
G
4. C[Si](C)(Cn1ccnc1)c1ccc(F)cc1
G
5. C[Si](C)(Cn1ccnc1)c1ccc(OC(F)(F)F)cc1
G
6. Cc1ccc([Si](C)(C)Cn2ccnc2)cc1
G
7. COc1ccccc1[Si](C)(C)Cn1ccnc1
G
8. C[Si](C)(Cn1ccnc1)c1ccc(Cl)cc1Cl
H
9. C[Si](C)(Cn1ccnc1)c1ccccc1C(F)(F)F
G
10. C[Si](C)(Cn1ccnc1)c1cc(Cl)cc(Cl)c1
G

====

Test system: Helminthosporium maydis
Test: southern corn leaf blight control on corn seedlings
Assay type: in vivo
Conditions: Bipolaris maydis, 168 h
From the text: Compounds of the previous example were again dissolved in acetone in an amount equal to 6% of the final volume and then suspended at a concentration of 100 ppm in purified water containing 250 ppm of the surfactant TREM 014 (polyhydric alcohol esters). This suspension was sprayed to the point of run-off on corn seedlings. […]
# pest or weed control at 100 ppm values compiled below
READOUT: pest or weed control at 100 ppm (%)

1) CCCC[Si](C)(Cn1ccnc1)c1ccc(Cl)cc1Cl (stereo not shown)
80
2) C[Si](Cn1ccnc1)(c1ccccc1)c1ccccc1Cl (stereo not shown)
0
3) C[Si](C)(Cn1ccnc1)c1ccc(OC(F)(F)F)cc1
0
4) Fc1ccc([Si](Cn2ccnc2)(c2ccc(F)cc2)c2ccc(F)cc2)cc1
0
5) C[Si](C)(Cn1ccnc1)c1cccc(Cl)c1
0
6) C[Si](C)(Cn1ccnc1)c1ccc(Oc2ccccc2)cc1
0
7) C[Si](C)(Cn1ccnc1)c1ccc(Cl)c(Cl)c1
70

Where do these numbers come from? They come from patent US4496551A.
